Experiment: Drug concentration in heart of C57BL/6 mouse implanted with mouse B16-F10 cells at 50 mg/kg, ip measured after 2 hrs by UPLC-MS/MS analysis
Type: ADME, organism-based
Details: read-out: Ct

{"molecule": "Cc1c(COc2cc(OCc3cccc(C#N)c3)c(CN3CCCCC3C(=O)NCCNC(=O)CCCC[C@@H]3SC[C@@H]4NC(=O)N[C@@H]43)cc2Cl)cccc1-c1ccccc1 (stereo partly specified)", "concentration at 2 h [ng/mL]": 12.4}

---

Test: Drug concentration in kidney of C57BL/6 mouse implanted with mouse B16-F10 cells at 50 mg/kg, ip measured after 0.5 hrs by UPLC-MS/MS analysis
Type: ADME, organism-based
Settings: read-out: Ct
reported metric: concentration at 0.5 h (ng/mL)

{"compound": "Cc1c(COc2cc(OCc3cccc(C#N)c3)c(CN3CCCCC3C(=O)NCCNC(=O)CCCC[C@@H]3SC[C@@H]4NC(=O)N[C@@H]43)cc2Cl)cccc1-c1ccccc1 (stereo partly specified)", "reported metric": "concentration at 0.5 h", "unit string": "ng/mL", "observed": 134}
